target: KDR (Homo sapiens, UniProt P35968); test: KDR autophosphorylation ELISA in HUVEC cells; assay type: cell-based; set-up: endogenous in cells; host or cells: HUVEC (Lonza #C2519A); details: cellular activity, VEGF165-stimulated, phospho-KDR ELISA
Sequence (P35968 20-1356): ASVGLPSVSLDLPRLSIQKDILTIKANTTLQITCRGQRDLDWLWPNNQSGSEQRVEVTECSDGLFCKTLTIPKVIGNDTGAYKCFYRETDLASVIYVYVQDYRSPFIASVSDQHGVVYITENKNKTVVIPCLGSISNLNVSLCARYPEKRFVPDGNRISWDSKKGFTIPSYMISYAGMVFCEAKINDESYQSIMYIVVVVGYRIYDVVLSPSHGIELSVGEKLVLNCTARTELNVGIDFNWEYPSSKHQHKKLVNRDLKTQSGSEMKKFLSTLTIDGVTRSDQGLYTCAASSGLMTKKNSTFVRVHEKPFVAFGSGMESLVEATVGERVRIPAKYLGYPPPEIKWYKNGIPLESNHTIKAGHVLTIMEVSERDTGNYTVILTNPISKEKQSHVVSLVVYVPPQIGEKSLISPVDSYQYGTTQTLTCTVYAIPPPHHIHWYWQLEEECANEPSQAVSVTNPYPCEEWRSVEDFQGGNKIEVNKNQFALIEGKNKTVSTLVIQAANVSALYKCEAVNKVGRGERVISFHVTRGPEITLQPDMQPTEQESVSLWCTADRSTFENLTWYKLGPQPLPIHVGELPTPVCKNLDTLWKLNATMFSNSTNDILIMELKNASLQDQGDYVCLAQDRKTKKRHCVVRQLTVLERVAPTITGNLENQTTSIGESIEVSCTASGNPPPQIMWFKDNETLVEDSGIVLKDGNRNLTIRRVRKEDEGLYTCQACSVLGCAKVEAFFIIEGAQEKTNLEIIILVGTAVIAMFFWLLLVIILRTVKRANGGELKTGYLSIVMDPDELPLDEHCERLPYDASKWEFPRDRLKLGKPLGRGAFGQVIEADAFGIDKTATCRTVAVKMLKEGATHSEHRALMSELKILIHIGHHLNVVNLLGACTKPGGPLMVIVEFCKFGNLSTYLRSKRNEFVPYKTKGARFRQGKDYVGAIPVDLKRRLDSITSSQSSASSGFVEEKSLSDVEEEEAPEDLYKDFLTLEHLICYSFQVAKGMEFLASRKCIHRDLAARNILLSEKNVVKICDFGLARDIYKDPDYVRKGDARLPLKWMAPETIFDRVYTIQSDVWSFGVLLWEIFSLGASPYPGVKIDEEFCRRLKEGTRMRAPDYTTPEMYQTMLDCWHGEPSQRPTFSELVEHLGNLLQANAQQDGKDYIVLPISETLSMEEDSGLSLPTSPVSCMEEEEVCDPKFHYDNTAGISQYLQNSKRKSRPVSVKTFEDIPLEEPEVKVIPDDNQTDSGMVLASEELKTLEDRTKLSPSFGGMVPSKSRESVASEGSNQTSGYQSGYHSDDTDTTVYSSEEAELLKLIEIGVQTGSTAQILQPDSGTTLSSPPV
Reported IC50 is given for each of the following compounds.

INPUT: // IC50 lookup, key: `Cn1cc(-c2ccc3c(Oc4ccc(NC(=O)C5(C(=O)Nc6ccc(F)cc6)CC5)cc4)ccnc3c2)cn1`
OUTPUT: ≤ 10 nM

###

molecular target: Met (Homo sapiens, UniProt P08581); test: Human Met kinase assay (33P-phosphoryl transfer radiometric, KinaseProfiler); design: Human Met (residues R974-S1390 with A1209G and V1290L, 3.4 nM); purchased Eurofins Pharma Discovery Services UK Limited (KinaseProfiler service); conditions: biochemical activity; 10 μM ATP; read-out: c-Met IC50
Sequence (P08581 974-1390): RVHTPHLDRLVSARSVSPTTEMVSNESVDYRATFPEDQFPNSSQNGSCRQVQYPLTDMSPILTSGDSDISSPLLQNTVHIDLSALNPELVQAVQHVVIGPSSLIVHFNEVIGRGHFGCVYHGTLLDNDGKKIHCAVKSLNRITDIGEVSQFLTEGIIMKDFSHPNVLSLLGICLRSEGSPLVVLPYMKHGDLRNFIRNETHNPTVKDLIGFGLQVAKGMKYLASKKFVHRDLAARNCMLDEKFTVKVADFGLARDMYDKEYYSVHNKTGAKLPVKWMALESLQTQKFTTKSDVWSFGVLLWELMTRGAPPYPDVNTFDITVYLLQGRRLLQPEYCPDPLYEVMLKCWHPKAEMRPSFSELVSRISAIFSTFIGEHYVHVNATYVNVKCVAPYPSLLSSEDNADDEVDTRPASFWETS
Reported IC50 is given for each of the following molecules.

INPUT: // IC50 lookup, key: O=C(Nc1ccc(F)cc1)C1(C(=O)Nc2ccc(Oc3ccnc4cc(-c5cnn(CCF)c5)ccc34)cc2)CC1 [Compound 14]
OUTPUT: ≤ 10 nM

INPUT: // IC50 lookup, key: Cn1cnc(-c2ccc3c(Oc4ccc(NC(=O)C5(C(=O)Nc6ccc(F)cc6)CC5)cc4)ccnc3c2)c1 [Compound 69]
OUTPUT: ≤ 10 nM

INPUT: // IC50 lookup, key: O=C(Nc1ccc(F)cc1)C1(C(=O)Nc2ccc(Oc3ccnc4cc(-c5cnn(CC(F)F)c5)ccc34)cc2)CC1 [Compound 15]
OUTPUT: ≤ 10 nM

INPUT: // IC50 lookup, key: O=C(Nc1ccc(F)cc1)C1(C(=O)Nc2ccc(Oc3ccnc4cc(-c5cnn(CCN6CCOCC6)c5)ccc34)cc2)CC1 [Compound 19]
OUTPUT: ≤ 10 nM

INPUT: // IC50 lookup, key: Cn1ccc(-c2ccc3c(Oc4ccc(NC(=O)C5(C(=O)Nc6ccc(F)cc6)CC5)cc4)ccnc3c2)n1 [Compound 17]
OUTPUT: ≤ 10 nM

INPUT: // IC50 lookup, key: O=C(Nc1ccc(F)cc1)C1(C(=O)Nc2ccc(Oc3ccnc4cc(-c5cnc[nH]5)ccc34)cc2)CC1 [Compound 72]
OUTPUT: ≤ 10 nM

INPUT: // IC50 lookup, key: CCn1cc(-c2ccc3c(Oc4ccc(NC(=O)C5(C(=O)Nc6ccc(F)cc6)CC5)cc4)ccnc3c2)cn1 [Compound 20]
OUTPUT: ≤ 10 nM

INPUT: // IC50 lookup, key: COc1cc2c(Oc3ccc(NC(=O)C4(C(=O)Nc5ccc(F)cc5)CC4)cc3)ccnc2cc1-c1cnn(C)c1 [Compound 76]
OUTPUT: ≤ 10 nM

INPUT: // IC50 lookup, key: Cc1cc(F)cc(C)c1NC(=O)C1(C(=O)Nc2ccc(Oc3ccnc4cc(-c5cnn(C)c5)ccc34)cc2)CC1 [Compound 82]
OUTPUT: 10 to 100 nM

INPUT: // IC50 lookup, key: CC1Cc2cc(F)ccc2N1C(=O)C1(C(=O)Nc2ccc(Oc3ccnc4cc(-c5cnn(C)c5)ccc34)cc2)CC1 (centres unmarked) [Compound 80]
OUTPUT: 10 to 100 nM

INPUT: // IC50 lookup, key: O=C(Nc1ccc(F)cc1)C1(C(=O)Nc2ccc(Oc3ccnc4cc(-c5cnn(CCO)c5)ccc34)cc2)CC1 [Compound 18]
OUTPUT: ≤ 10 nM

INPUT: // IC50 lookup, key: COCCn1cc(-c2ccc3c(Oc4ccc(NC(=O)C5(C(=O)Nc6ccc(F)cc6)CC5)cc4)ccnc3c2)cn1 [Compound 10]
OUTPUT: 10 to 100 nM

INPUT: // IC50 lookup, key: CC(=O)N1CCC(n2cc(-c3ccc4c(Oc5ccc(NC(=O)C6(C(=O)Nc7ccc(F)cc7)CC6)cc5)ccnc4c3)cn2)CC1 [Compound 62]
OUTPUT: ≤ 10 nM

INPUT: // IC50 lookup, key: O=C(Nc1ccc(F)cc1)C1(C(=O)Nc2ccc(Oc3ccnc4cc(-c5cnn(C(F)(F)F)c5)ccc34)cc2)CC1 [Compound 12]
OUTPUT: 10 to 100 nM

###

target: KDR (Homo sapiens); test: KDR autophosphorylation ELISA in HUVEC cells; type: cell-based; design: endogenous in cells; host or cells: HUVEC (Lonza #C2519A); details: cellular activity, VEGF165-stimulated, phospho-KDR ELISA
Reported IC50 is given for each of the following compounds.

[
  {
    "COMPOUND": "Cc1cc(-c2ccc3c(Oc4ccc(NC(=O)C5(C(=O)Nc6ccc(F)cc6)CC5)cc4)ccnc3c2)n[nH]1 [Compound 99]",
    "MEASUREMENT": "≤ 10 nM"
  },
  {
    "COMPOUND": "N#Cc1ccc(-c2ccc3c(Oc4ccc(NC(=O)C5(C(=O)Nc6ccc(F)cc6)CC5)cc4)ccnc3c2)cn1 [Compound 42]",
    "MEASUREMENT": "10 to 100 nM"
  },
  {
    "COMPOUND": "O=C(Nc1ccc(F)cc1)C1(C(=O)Nc2ccc(Oc3ccnc4cc(-c5cc6ccccn6n5)ccc34)cc2)CC1 [Compound 104]",
    "MEASUREMENT": "10 to 100 nM"
  },
  {
    "COMPOUND": "O=C(Nc1ccc(F)cc1)C1(C(=O)Nc2ccc(Oc3ccnc4cc(-c5cnc6[nH]ncc6c5)ccc34)cc2)CC1 [Compound 39]",
    "MEASUREMENT": "10 to 100 nM"
  },
  {
    "COMPOUND": "O=C(Nc1ccc(F)cc1)C1(C(=O)Nc2ccc(Oc3ccnc4cc(-c5cncc(F)c5)ccc34)cc2)CC1 [Compound 45]",
    "MEASUREMENT": "100 to 300 nM"
  },
  {
    "COMPOUND": "O=C(Nc1ccc(F)cc1)C1(C(=O)Nc2ccc(Oc3ccnc4cc(-c5cnn(C(F)(F)F)c5)ccc34)cc2)CC1 [Compound 12]",
    "MEASUREMENT": "10 to 100 nM"
  }
]

Alright, here's another compound for you.
INPUT: // IC50 lookup, key: C[Si](C)(C)C#Cc1ccc2c(Oc3ccc(NC(=O)C4(C(=O)Nc5ccc(F)cc5)CC4)cc3)ccnc2c1 [Compound 63]
OUTPUT: > 300 nM

###

biological target: KDR (Homo sapiens, UniProt P35968); assay: KDR autophosphorylation ELISA in HUVEC cells; assay type: cell-based; parameters: endogenous in cells; host or cells: HUVEC (Lonza #C2519A); settings: cellular activity, VEGF165-stimulated, phospho-KDR ELISA
REPORTED_ENDPOINT: IC50

Worked set:
[
  {
    "COMPOUND": "CN(C(=O)C1(C(=O)Nc2ccc(Oc3ccnc4cc(-c5cnn(C)c5)ccc34)cc2)CC1)c1ccc(F)cc1 [Compound 82A]",
    "MEASUREMENT": "> 0.3 µM"
  },
  {
    "COMPOUND": "O=C(Nc1ccc(F)cc1)C1(C(=O)Nc2ccc(Oc3ccnc4cc(-c5cnc[nH]5)ccc34)cc2)CC1",
    "MEASUREMENT": "≤ 0.01 µM"
  },
  {
    "COMPOUND": "N#Cc1cc(-c2ccc3c(Oc4ccc(NC(=O)C5(C(=O)Nc6ccc(F)cc6)CC5)cc4)ccnc3c2)ccn1",
    "MEASUREMENT": "0.01 to 0.1 µM"
  }
]

INPUT: Which measured IC50 belongs to O=C(Nc1ccc(F)cc1)C1(C(=O)Nc2ccc(Oc3ccnc4cc(C5CCOC5)ccc34)cc2)CC1 (single isomer, unassigned) [Compound 88] , tested on KDR (Homo sapiens, UniProt P35968)?
OUTPUT: > 0.3 µM

INPUT: Which measured IC50 belongs to `CC(C)(C)n1cc(-c2ccc3c(Oc4ccc(NC(=O)C5(C(=O)Nc6ccc(F)cc6)CC5)cc4)ccnc3c2)cn1` , tested on KDR (Homo sapiens, UniProt P35968)?
OUTPUT: 0.01 to 0.1 µM

INPUT: Which measured IC50 belongs to `COCCn1cc(-c2ccc3c(Oc4ccc(NC(=O)C5(C(=O)Nc6ccc(F)cc6)CC5)cc4)ccnc3c2)cn1` , tested on KDR (Homo sapiens, UniProt P35968)?
OUTPUT: 0.01 to 0.1 µM

INPUT: Which measured IC50 belongs to `O=C(Nc1ccc(F)cc1)C1(C(=O)Nc2ccc(Oc3ccnc4cc(-c5cnoc5)ccc34)cc2)CC1` , tested on KDR (Homo sapiens, UniProt P35968)?
OUTPUT: 0.01 to 0.1 µM

###

molecular target: UniProt P08581; assay: Met autophosphorylation ELISA in PC-3 cells; format: cell-based; set-up: endogenous in cells; host or cells: PC-3 prostate cancer cells (ATCC #CRL-1435); conditions: cellular activity, HGF-stimulated, phospho-Met ELISA, read-out: c-Met IC50
Sequence (P08581 25-1390): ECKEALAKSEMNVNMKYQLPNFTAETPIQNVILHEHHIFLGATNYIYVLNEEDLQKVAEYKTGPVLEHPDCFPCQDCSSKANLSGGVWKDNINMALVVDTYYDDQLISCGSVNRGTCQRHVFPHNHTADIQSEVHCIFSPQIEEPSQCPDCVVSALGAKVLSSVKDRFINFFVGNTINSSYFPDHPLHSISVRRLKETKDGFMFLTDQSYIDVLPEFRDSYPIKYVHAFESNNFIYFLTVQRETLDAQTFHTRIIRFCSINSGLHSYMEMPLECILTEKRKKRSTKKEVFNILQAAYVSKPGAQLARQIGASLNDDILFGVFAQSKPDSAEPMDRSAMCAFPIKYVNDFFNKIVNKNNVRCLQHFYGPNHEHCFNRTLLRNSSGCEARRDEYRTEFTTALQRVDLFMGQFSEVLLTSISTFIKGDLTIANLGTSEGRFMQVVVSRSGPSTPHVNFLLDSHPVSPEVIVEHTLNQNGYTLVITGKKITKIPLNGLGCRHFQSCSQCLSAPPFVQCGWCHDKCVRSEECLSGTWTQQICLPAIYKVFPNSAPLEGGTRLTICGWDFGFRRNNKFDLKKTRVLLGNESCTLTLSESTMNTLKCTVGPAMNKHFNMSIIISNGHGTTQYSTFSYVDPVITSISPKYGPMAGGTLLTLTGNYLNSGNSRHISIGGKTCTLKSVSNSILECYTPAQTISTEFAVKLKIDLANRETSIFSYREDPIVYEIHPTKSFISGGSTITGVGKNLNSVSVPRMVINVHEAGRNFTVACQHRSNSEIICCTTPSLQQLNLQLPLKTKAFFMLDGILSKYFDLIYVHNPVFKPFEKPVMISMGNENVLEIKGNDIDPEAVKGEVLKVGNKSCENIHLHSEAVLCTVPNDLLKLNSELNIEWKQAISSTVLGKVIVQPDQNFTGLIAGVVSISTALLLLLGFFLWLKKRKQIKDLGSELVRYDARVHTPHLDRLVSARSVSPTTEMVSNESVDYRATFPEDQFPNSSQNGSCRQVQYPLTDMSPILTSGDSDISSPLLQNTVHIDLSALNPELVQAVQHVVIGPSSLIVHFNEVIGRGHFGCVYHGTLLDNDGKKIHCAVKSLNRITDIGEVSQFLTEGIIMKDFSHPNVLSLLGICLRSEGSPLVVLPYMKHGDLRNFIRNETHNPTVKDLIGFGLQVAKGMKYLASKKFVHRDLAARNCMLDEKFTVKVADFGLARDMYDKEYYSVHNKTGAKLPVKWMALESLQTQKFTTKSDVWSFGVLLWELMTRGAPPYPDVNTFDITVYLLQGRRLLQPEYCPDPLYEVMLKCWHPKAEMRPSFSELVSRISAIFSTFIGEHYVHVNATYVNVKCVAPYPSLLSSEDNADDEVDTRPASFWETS
Reported IC50 is given for each of the following molecules.

[
  {
    "MOLECULE": "Cn1cc(-c2ccc3c(Oc4ccc(NC(=O)C5(C(=O)Nc6ccc(F)cc6)CC5)cc4)ccnc3c2)ccc1=O",
    "IC50": "10 to 100 nM"
  },
  {
    "MOLECULE": "O=C(Nc1ccc(F)cc1)C1(C(=O)Nc2ccc(Oc3ccnc4cc(C5CCOC5)ccc34)cc2)CC1 (single isomer, unassigned) [Compound 88]",
    "IC50": "10 to 100 nM"
  },
  {
    "MOLECULE": "O=C(Nc1ccc(F)cc1)C1(C(=O)Nc2ccc(Oc3ccnc4cc(-c5ccc(C(F)(F)F)nc5)ccc34)cc2)CC1",
    "IC50": "100 to 300 nM"
  },
  {
    "MOLECULE": "O=C(Nc1ccc(F)cc1)C1(C(=O)Nc2ccc(Oc3ccnc4cc(-c5cccnc5O)ccc34)cc2)CC1",
    "IC50": "10 to 100 nM"
  }
]

INPUT: Which measured IC50 belongs to `CC(=O)N1CCC(n2cc(-c3ccc4c(Oc5ccc(NC(=O)C6(C(=O)Nc7ccc(F)cc7)CC6)cc5)ccnc4c3)cn2)CC1` , tested on UniProt P08581?
OUTPUT: 10 to 100 nM

INPUT: Which measured IC50 belongs to `Cn1nccc1-c1ccc2c(Oc3ccc(NC(=O)C4(C(=O)Nc5ccc(F)cc5)CC4)cc3)ccnc2c1` , tested on UniProt P08581?
OUTPUT: 10 to 100 nM

INPUT: Which measured IC50 belongs to `COCCn1cc(-c2ccc3c(Oc4ccc(NC(=O)C5(C(=O)Nc6ccc(F)cc6)CC5)cc4)ccnc3c2)cn1` , tested on UniProt P08581?
OUTPUT: 10 to 100 nM

INPUT: Which measured IC50 belongs to `Nc1ccc(-c2ccc3c(Oc4ccc(NC(=O)C5(C(=O)Nc6ccc(F)cc6)CC5)cc4)ccnc3c2)cn1` , tested on UniProt P08581?
OUTPUT: 10 to 100 nM

INPUT: Which measured IC50 belongs to `Cc1cnn(-c2ccc3c(Oc4ccc(NC(=O)C5(C(=O)Nc6ccc(F)cc6)CC5)cc4)ccnc3c2)c1` , tested on UniProt P08581?
OUTPUT: 10 to 100 nM

INPUT: Which measured IC50 belongs to `COc1cncc(-c2ccc3c(Oc4ccc(NC(=O)C5(C(=O)Nc6ccc(F)cc6)CC5)cc4)ccnc3c2)c1` , tested on UniProt P08581?
OUTPUT: 100 to 300 nM

INPUT: Which measured IC50 belongs to `Cc1cc2c(Oc3ccc(NC(=O)C4(C(=O)Nc5ccc(F)cc5)CC4)cc3)ccnc2cc1-c1cc[nH]n1` , tested on UniProt P08581?
OUTPUT: 100 to 300 nM

INPUT: Which measured IC50 belongs to CC1Cc2cc(F)ccc2N1C(=O)C1(C(=O)Nc2ccc(Oc3ccnc4cc(-c5cnn(C)c5)ccc34)cc2)CC1 (centres unmarked) , tested on UniProt P08581?
OUTPUT: 100 to 300 nM

INPUT: Which measured IC50 belongs to `Cc1cc(-c2ccc3c(Oc4ccc(NC(=O)C5(C(=O)Nc6ccc(F)cc6)CC5)cc4)ccnc3c2)cc(C)n1` , tested on UniProt P08581?
OUTPUT: 10 to 100 nM

INPUT: Which measured IC50 belongs to `O=C(Nc1ccc(F)cc1)C1(C(=O)Nc2cc(F)c(Oc3ccnc4cc(-c5cccnc5)ccc34)cc2F)CC1` , tested on UniProt P08581?
OUTPUT: 10 to 100 nM
